test system: 354836-022-R-J1-PDC multicell spheroid viability; assay: Anticancer human tumor 354836-022-R-J1-PDC patient-derived head and neck squamous cell carcinoma cell line growth inhibition [PI3K]; settings: second compound 0.316 µM; first compound 0.316 µM; stronger effect = lower value
MEASURED_PROPERTY: viability, T/C

Query :: Looking for the measured viability, T/C of C[C@@H](NC(=O)c1ncnc(N)c1Cl)c1ncc(C(=O)Nc2cc(C(F)(F)F)c(Cl)cn2)s1 + COc1c(OCCCN2CCOCC2)ccc2c3n(c(=NC(=O)c4cnc(N)nc4)nc12)CCN3 , can you help?
Result :: 13.4%

Query :: Same question, CC(C)NCC(C(=O)N1CCN(c2ncnc3c2C(C)CC3O)CC1)c1ccc(Cl)cc1 (stereo unspecified) + CC(Nc1ccc2c(c1)OCCn1cc(N3C(=O)OCC3C(F)F)nc1-2)C(N)=O this time
Result :: 44.7%

Query :: Same question, C#Cc1c(F)ccc2cc(O)cc(-c3ncc4c(N5CC6CCC(C5)N6)nc(OCC56CCCN5CC(F)C6)nc4c3F)c12 (stereo unspecified) + COc1c(OCCCN2CCOCC2)ccc2c3n(c(=NC(=O)c4cnc(N)nc4)nc12)CCN3 this time
Result :: 12.9%

Query :: Same question, CCN1CCN(Cc2ccc(Nc3ncc(F)c(-c4cc(F)c5nc(C)n(C(C)C)c5c4)n3)nc2)CC1 + Cc1nc(NC(=O)N2CCCC2C(N)=O)sc1-c1ccnc(C(C)(C)C(F)(F)F)c1 this time
Result :: 84.2%

Query :: Same question, CC(Cn1ccc(-c2ccc(C#N)c(Cl)c2)n1)NC(=O)c1cc(C(C)O)[nH]n1 (stereo unspecified) + Cc1nc(NC(=O)N2CCCC2C(N)=O)sc1-c1ccnc(C(C)(C)C(F)(F)F)c1 this time
Result :: 81%

Query :: Same question, CCN1CCN(Cc2ccc(Nc3ncc(F)c(-c4cc(F)c5nc(C)n(C(C)C)c5c4)n3)nc2)CC1 + COc1c(OCCCN2CCOCC2)ccc2c3n(c(=NC(=O)c4cnc(N)nc4)nc12)CCN3 this time
Result :: 5.99%

Query :: Same question, Cn1ncc(Cl)c1-c1cc(C(=O)NC(CN)Cc2cccc(F)c2)sc1Cl (stereo unspecified) + COc1c(OCCCN2CCOCC2)ccc2c3n(c(=NC(=O)c4cnc(N)nc4)nc12)CCN3 this time
Result :: 5.2%

====

Tested on: 354836-022-R-J1-PDC multicell spheroid viability
Experiment: Anticancer human tumor 354836-022-R-J1-PDC cell line growth inhibition [PI3K];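 note: spheroids exposed to agents for seven days before the viability read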
Conditions: second compound 0.0316 µM; first compound 3.16 µM; stronger effect = lower value
From the text: Combinatorial screen of targeted agents with the PI3K inhibitors inavolisib, alpelisib, duvelisib, and copanlisib in multi-cell type tumor spheroids A high-throughput screen of multi-cell type tumor spheroids was designed to identify active combinations of targeted small molecules and PI3K pathway inhibitors. […] Compounds. […] If the clinical Cmax for an agent had not been determined, the highest concentration tested was 10 microM. […]
MEASURED_PROPERTY: viability, T/C (%)
Number only, in %; omit the unit.

Use the examples below as a reference point.
Query :: Looking for the measured viability, T/C of C[C@@H](NC(=O)c1ncnc(N)c1Cl)c1ncc(C(=O)Nc2cc(C(F)(F)F)c(Cl)cn2)s1 + COc1c(OCCCN2CCOCC2)ccc2c3n(c(=NC(=O)c4cnc(N)nc4)nc12)CCN3 , can you help?
Result :: 84.2

Query :: Same question, CC(Cn1ccc(-c2ccc(C#N)c(Cl)c2)n1)NC(=O)c1cc(C(C)O)[nH]n1 (configuration not stated) + Cc1nc(NC(=O)N2CCCC2C(N)=O)sc1-c1ccnc(C(C)(C)C(F)(F)F)c1 this time
Result :: 97.4

Query :: Same question, CCCS(=O)(=O)Nc1ccc(F)c(C(=O)c2c[nH]c3ncc(-c4ccc(Cl)cc4)cc23)c1F + CC(Nc1ccc2c(c1)OCCn1cc(N3C(=O)OCC3C(F)F)nc1-2)C(N)=O this time
Result :: 93

Please look at the following compound next.
Query :: Looking for the measured viability, T/C of CC1(C)CCC(CN2CCN(c3ccc(C(=O)NS(=O)(=O)c4ccc(NCC5CCOCC5)c([N+](=O)[O-])c4)c(Oc4cnc5[nH]ccc5c4)c3)CC2)=C(c2ccc(Cl)cc2)C1 + CC(Nc1ccc2c(c1)OCCn1cc(N3C(=O)OCC3C(F)F)nc1-2)C(N)=O , can you help?
Result :: 54
